Target: UniProtKB P18858
Assay: Inhibition of human DNA ligase 1 using 52-mer DNA/25-mer DNA/27-mer DNA as substrate by fluorescence assay
pIC50: −log10 of the molar value.
TEST_READOUT: pIC50

Consider the following illustrative entries.
{"MOLECULE": "CC1(C)CC[C@]2(C(=O)O)CC=C3[C@]4(C)CC[C@H]5C(C)(C)[C@@H](O)CC[C@]5(C)[C@H]4CC[C@@]3(C)[C@@H]2C1", "pIC50": 3.68}
{"MOLECULE": "O=c1c(O)c(-c2cc(O)c(O)c(O)c2)oc2cc(O)cc(O)c12", "pIC50": 4.06}
{"MOLECULE": "C/C=C/C=C1\\C=Cc2c(C(=O)OC)coc(=O)c21", "pIC50": 3.45}
{"MOLECULE": "COc1cc2c(ccc3c4cc(OC)c(OC)cc4c[n+](C)c23)cc1O", "pIC50": 4.59}
{"MOLECULE": "C[C@H]1[C@H](C)CC[C@]2(C(=O)O)CC[C@]3(C)C(=CC[C@@H]4[C@@]5(C)CC[C@H](O)C(C)(C)[C@@H]5CC[C@]43C)[C@H]12", "pIC50": 3.58}
{"MOLECULE": "O=c1c(O)c(-c2ccc(O)cc2O)oc2cc(O)cc(O)c12", "pIC50": 3.65}

1: C[n+]1cc2c3c(ccc2c2ccc4cc5c(cc4c21)OCO5)OCO3 [SANGUINARINE NITRATE]
2: COc1cc2c[n+](C)c3c4cc5c(cc4ccc3c2cc1OC)OCO5 [NITIDINE CHLORIDE]
3: CC1(C)CC[C@]2(C(=O)O)CC[C@]3(C)C(=CC[C@@H]4[C@@]5(C)CC[C@H](O)C(C)(C)[C@@H]5CC[C@]43C)[C@@H]2C1
4: C=C1C(=O)OC(CCCCCCCCCCCCC)C1C(=O)O (stereo not drawn) [(+/-)-Protolichesterinic acid]
Ascending sort, pIC50. The reply should contain the labels ordered as requested. 1, 3, 2, 4

---

Molecular target: DNA ligase 1 (Homo sapiens)
Sequence (P18858 whole entry): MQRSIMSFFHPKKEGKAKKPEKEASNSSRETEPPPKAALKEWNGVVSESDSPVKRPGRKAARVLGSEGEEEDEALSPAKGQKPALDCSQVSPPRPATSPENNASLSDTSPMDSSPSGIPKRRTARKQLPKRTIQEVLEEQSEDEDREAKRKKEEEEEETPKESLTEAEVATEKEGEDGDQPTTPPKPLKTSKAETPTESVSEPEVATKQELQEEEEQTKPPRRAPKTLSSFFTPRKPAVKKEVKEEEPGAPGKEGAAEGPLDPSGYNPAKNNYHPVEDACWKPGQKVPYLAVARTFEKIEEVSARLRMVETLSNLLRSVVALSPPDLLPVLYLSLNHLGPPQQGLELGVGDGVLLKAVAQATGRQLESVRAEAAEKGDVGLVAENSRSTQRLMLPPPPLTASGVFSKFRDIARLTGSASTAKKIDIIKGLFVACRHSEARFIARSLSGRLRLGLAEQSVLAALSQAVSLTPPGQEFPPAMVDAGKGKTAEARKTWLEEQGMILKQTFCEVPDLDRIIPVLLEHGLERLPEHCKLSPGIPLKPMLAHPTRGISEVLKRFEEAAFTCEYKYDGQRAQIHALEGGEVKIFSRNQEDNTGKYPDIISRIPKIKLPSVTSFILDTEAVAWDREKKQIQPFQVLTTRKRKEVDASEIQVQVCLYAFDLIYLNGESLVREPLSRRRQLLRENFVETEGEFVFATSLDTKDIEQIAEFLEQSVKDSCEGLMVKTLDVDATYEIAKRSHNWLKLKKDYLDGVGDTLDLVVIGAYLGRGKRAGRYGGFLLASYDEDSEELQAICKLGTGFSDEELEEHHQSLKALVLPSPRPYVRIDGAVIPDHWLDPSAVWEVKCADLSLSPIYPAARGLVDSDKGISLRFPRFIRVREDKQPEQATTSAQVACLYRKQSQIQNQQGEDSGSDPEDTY
Test: Inhibition of human DNA ligase 1 expressed in Escherichia coli BL21 (DE3) cells using nicked DNA as substrate preincubated for 30 mins followed by substrate addition measured after 1 hr
TEST_READOUT: IC50 (µM)

Worked cases, IC50 given:
{"COMPOUND": "O=C1Nc2ccccc2/C1=N/Nc1cn[nH]c(=O)c1Cl", "IC50, µM": 13.9}
{"COMPOUND": "O=C1/C(=N\\Nc2cn[nH]c(=O)c2Cl)c2cc(Cl)ccc2N1c1ccc(F)cc1", "IC50, µM": 21.1}
{"COMPOUND": "Cc1ccc(N2C(=O)/C(=N\\Nc3cn[nH]c(=O)c3Cl)c3ccccc32)cc1", "IC50, µM": 14.1}

I: O=C1/C(=N\Nc2cn[nH]c(=O)c2Cl)c2cc(Br)ccc2N1c1ccccc1
II: O=C1/C(=N\Nc2cn[nH]c(=O)c2Cl)c2cc(Cl)ccc2N1c1ccc(Cl)cc1
Would you let me know which has the greater IC50 value, I or II ? Mark your selection by writing its label. I
(I: 36.4 µM, II: 14.1 µM)

1: O=C1/C(=N\Nc2cn[nH]c(=O)c2Cl)c2ccccc2N1c1ccc(Cl)cc1
2: O=C1Nc2ccc(Cl)cc2/C1=N/Nc1cn[nH]c(=O)c1Cl
When 1 and 2 are compared, which has the higher number for IC50? Answer = label. 1
(1: 26.5 µM, 2: 14.1 µM)

---

Tested on: DLD-1
Assay: Antiproliferative activity against human DLD1 cells at 100 uM relative to control
Type: functional
TEST_READOUT: inhibition at 100 µM

{"COMPOUND": "CCOC(=O)C1=C(C)NC(=O)NC1c1cc(/C=N/NC(=O)Nc2ccc(F)cc2)c(O)c(C(C)(C)C)c1 (stereo not drawn)", "SYSTEM_TESTED": "DLD-1", "inhibition at 100 µM": "> 80%"}

Okay, next one:
Answer with the recorded inhibition at 100 µM of CCOC(=O)C1=C(C)NC(=S)NC1c1cc(/C=N/NC(=S)Nc2ccc(C)cc2)c(O)c(C(C)(C)C)c1 (stereo not drawn) only. < 80%

---

System: A549
Test: Antiproliferative activity against human A549 cells at 100 uM relative to control
Assay type: functional
TEST_READOUT: inhibition at 100 µM

Before answering, review these 3 worked examples.
{"COMPOUND": "CCOC(=O)C1=C(C)NC(=O)NC1c1cc(C)c(O)c(/C=N/NC(N)=O)c1 (stereo not drawn)", "inhibition at 100 µM": "< 80%"}
{"COMPOUND": "CCOC(=O)C1=C(C)NC(=S)NC1c1cc(/C=N/NC(=S)Nc2ccc(Cl)cc2)c(O)c(C(C)(C)C)c1 (stereo not drawn)", "inhibition at 100 µM": "< 80%"}
{"COMPOUND": "CCOC(=O)C1=C(C)NC(=O)NC1c1cc(/C=N/NC(N)=S)c(O)c(C(C)(C)C)c1 (stereo not drawn)", "inhibition at 100 µM": "> 80%"}

Report measured inhibition at 100 µM; entry is CCOC(=O)C1=C(C)NC(=O)NC1c1cc(C)c(O)c(/C=N/NC(=S)NC)c1 (stereo not drawn) > 80%

Give a short answer stating reported inhibition at 100 µM for CCOC(=O)C1=C(C)NC(=O)NC1c1cc(/C=N/NC(=O)Nc2ccc(F)cc2)c(O)c(C(C)(C)C)c1 (stereo not drawn) . > 80%

Tell us which inhibition at 100 µM value is on record for CCOC(=O)C1=C(C)NC(=S)NC1c1cc(/C=N/NC(=O)Nc2ccc(Cl)cc2)c(O)c(C(C)(C)C)c1 (stereo not drawn) < 80%

For the compound CCOC(=O)C1=C(C)NC(=O)NC1c1cc(/C=N/NC(=O)Nc2ccc(Br)cc2)c(O)c(C(C)(C)C)c1 (stereo not drawn) , give its measured inhibition at 100 µM value. > 80%

Consider the compound CCOC(=O)C1=C(C)NC(=O)NC1c1cc(/C=N/NC(=S)Nc2ccc(Cl)cc2)c(O)c(C(C)(C)C)c1 (stereo not drawn) and give its recorded inhibition at 100 µM. > 80%

---

Molecular target: DNA ligase 1 (Homo sapiens)
Assay: Inhibition of human DNA ligase 1 at 50 uM using 52-mer DNA/25-mer DNA/27-mer DNA as substrate by fluorescence assay relative to control
TEST_READOUT: inhibition (%)

Worked examples follow.
{"COMPOUND": "CC(=O)c1ccc(NC(=O)Nc2ccc3nc(C)cc(NC(=O)c4ccccc4)c3c2)cc1", "TEST_READOUT": "inhibition", "UNITS_LABEL": "%", "RECORDED_RESULT": 76.2}
{"COMPOUND": "O=C1NC(=O)/C(=C/c2ccc(OCCCCCOc3cccc(C(=O)/C=C/c4ccc5c(c4)OCO5)c3)cc2)S1", "TEST_READOUT": "inhibition", "UNITS_LABEL": "%", "RECORDED_RESULT": 99.6}
{"COMPOUND": "COc1ccc(N2C(=O)C3C4C=CC(CNC(=S)Nc5ccc(OC)cc5[N+](=O)[O-])(O4)C3C2=O)cc1 (stereo not given)", "TEST_READOUT": "inhibition", "UNITS_LABEL": "%", "RECORDED_RESULT": 65}

A: COc1cccc(NC(=S)NCC23C=CC(O2)C2C(=O)N(c4ccccc4Cl)C(=O)C23)c1 (stereo not given)
B: Cc1cc(NC(=O)CN2CCN(C(=O)OC(C)(C)C)CC2)c2cc(NC(=O)Nc3ccc(C)c(Cl)c3)ccc2n1
Which gives the smaller inhibition number: A or B ? Give the chosen item's label as your response. A
(A: 22.4%, B: 61.1%)

---

Test system: MDA-MB-231
Assay: Antiproliferative activity against human MDA-MB-231 cells at 100 uM relative to control
Format: functional
Listing of recorded inhibition at 100 µM by entry.

Here's what some known entries look like.
{"COMPOUND": "CCOC(=O)C1=C(C)NC(=S)NC1c1cc(/C=N/NC(=S)Nc2ccc(Cl)cc2)c(O)c(C(C)(C)C)c1 (centres undefined)", "inhibition at 100 µM": "< 80%"}
{"COMPOUND": "CCOC(=O)C1=C(C)NC(=O)NC1c1cc(C)c(O)c(/C=N/NC(N)=S)c1 (centres undefined)", "inhibition at 100 µM": "> 80%"}
{"COMPOUND": "CCOC(=O)C1=C(C)NC(=S)NC1c1cc(/C=N/NC(=S)Nc2ccc(C)cc2)c(O)c(C(C)(C)C)c1 (centres undefined)", "inhibition at 100 µM": "< 80%"}
{"COMPOUND": "CCOC(=O)C1=C(C)NC(=S)NC1c1cc(C)c(O)c(/C=N/NC(=O)Nc2ccc(Cl)cc2)c1 (centres undefined)", "inhibition at 100 µM": "> 80%"}
{"COMPOUND": "CCOC(=O)C1=C(C)NC(=O)NC1c1cc(/C=N/NC(N)=S)c(O)c(C(C)(C)C)c1 (centres undefined)", "inhibition at 100 µM": "> 80%"}
{"COMPOUND": "CCOC(=O)C1=C(C)NC(=O)NC1c1cc(/C=N/NC(N)=O)c(O)c(C(C)(C)C)c1 (centres undefined)", "inhibition at 100 µM": "< 80%"}
{"COMPOUND": "CCOC(=O)C1=C(C)NC(=O)NC1c1cc(/C=N/NC(=S)NC)c(O)c(C(C)(C)C)c1 (centres undefined)", "inhibition at 100 µM": "> 80%"}
{"COMPOUND": "CCOC(=O)C1=C(C)NC(=O)NC1c1cc(C)c(O)c(/C=N/NC(N)=O)c1 (centres undefined)", "inhibition at 100 µM": "< 80%"}

# ---- query compound ----
Please report the measured inhibition at 100 µM for CCOC(=O)C1=C(C)NC(=S)NC1c1cc(/C=N/NC(=S)Nc2ccccc2)c(O)c(C(C)(C)C)c1 (centres undefined) < 80%

The values you see were collected from ChEMBL document CHEMBL4334494.
